experiment: cells; assay type: functional, cell-based; details: Homo sapiens, LoVo/DX, 72 h
REPORTED_ENDPOINT: IC50 (nM)

[[record]]
compound_structure_string = "CCCCCCCCCC(=O)N[C@H]1CCc2cc(OC)c(OC)c(OC)c2-c2ccc(SC)c(=O)cc21"
reported_endpoint = "IC50"
measured_number = 84.6

[[record]]
compound_structure_string = "COCC(=O)N[C@H]1CCc2cc(OC)c(OC)c(OC)c2-c2ccc(SC)c(=O)cc21"
reported_endpoint = "IC50"
measured_number = 132

[[record]]
compound_structure_string = "COc1c(I)c2c(c(OC)c1OC)-c1ccc(SC)c(=O)cc1[C@@H](NC(=O)c1ccccc1)CC2"
reported_endpoint = "IC50"
measured_number = 72.9

[[record]]
compound_structure_string = "COc1cc2c(c(OC)c1OC)-c1ccc(SC)c(=O)cc1[C@@H](NC(=O)CCCCl)CC2"
reported_endpoint = "IC50"
measured_number = 102


Data provenance is ChEMBL document CHEMBL4680353.
